target entity: purified HLA DRB1*1501 (human)
assay protocol: competitive inhibition of 125I-labeled peptide binding to purified HLA
recorded metric: IC50 (nM)
Note: unit nM is implicit; provide only the numeric part.

# query: IC50 of entry RREVHIYYLEKANKI (modifications not checked) [Flu.PA.127 peptide …] 4.5
